tested on: P388 leukemia ip, CD2F1 mice, survival T/C; assay: NCI In Vivo Anticancer Drug Screen. Data for tumor model P388 Leukemia (intraperitoneal) in CD2F1 (CDF1) mice; details: endpoint: median survival time; dose: 25.0 mg/kg/injection; schedule: Q04DX002 (ip); vehicle: saline with Tween-80
Inconclusive results and toxic doses are left out. How the source made its calls: active means survival T/C of 150% or more; inactive means T/C below 125% in these data.
Tick one outcome: active, inactive

O=c1ccc2cc(-c3ccncc3)cnc2[nH]1 :: inactive
c1ccc2c(NCC3CCNCC3)c3ccccc3nc2c1 :: inactive
COc1c(CC(C)O)c2c3c(CC(C)O)c(OC)c(=O)c4cc(O)c5c(c6c(c(O)cc(c1=O)c26)OCO5)c43 (configuration not stated) :: inactive
Cn1c(=O)sc2ccccc21 :: inactive
CC(C)N1C(=O)C2C3C=CC(C3)C2C1=O (configuration not stated) :: inactive
CN=C(N)N/N=C(\c1ccccc1)c1ccc(Cl)cc1 :: active

Prompt line: What outcome does the record of this test show for O=C1C=CC(=O)C1=Cc1ccc([N+](=O)[O-])cc1 ?
Response line: inactive
